Test system: BEAS2B cells
Assay: MTT cell viability assay, normal cells
Format: cell-based, human
Conditions: Homo sapiens, BEAS-2B; BEAS2B normal cells, 24 h treatment, MTT
QUANTITY MEASURED: pIC50
Remember the convention: pIC50 equals -log10 of concentration in molar.

Enquiry: What is its pIC50 for BEAS2B cells? Entry: COC1=C(C)C(=O)C2=C(C1=O)[C@@H]1CN(Cc3ccc4ccccc4c3)[C@@H](C#N)[C@H](C2)N1C [DH_32]
Return: 5.30

----------
This section presents compounds with their documented IC50 values.
System: H23 cells
Assay: MTT cell viability assay
Format: cell-based, human
Settings: Homo sapiens, NCI-H23, H23, 24 h treatment
Supply the numeric figure in µM, leaving out any unit text.

Enquiry: Which IC50 value belongs to COC1=C(C)C(=O)C2=C(C1=O)[C@@H]1CN(Cc3ccccn3)[C@@H](C#N)[C@H](C2)N1C ?
Return: 28.1

Enquiry: Can you check COC1=C(C)C(=O)C2=C(C1=O)[C@@H]1CN(Cc3ccc4ccccc4c3)[C@@H](C#N)[C@H](C2)N1C next?
Return: 2.07

Enquiry: Can you check C#CCN1C[C@H]2C3=C(C[C@@H]([C@@H]1C#N)N2C)C(=O)C(C)=C(OC)C3=O next?
Return: 56

Enquiry: Can you check COC1=C(C)C(=O)C2=C(C1=O)[C@@H]1CN(Cc3cccnc3)[C@@H](C#N)[C@H](C2)N1C next?
Return: 49.4

Enquiry: Can you check COC1=C(C)C(=O)C2=C(C1=O)[C@@H]1CN(CCN3C(=O)c4ccccc4C3=O)[C@@H](C#N)[C@H](C2)N1C next?
Return: 73.3

Enquiry: Can you check COC1=C(C)C(=O)C2=C(C1=O)[C@@H]1CN(CCO)[C@@H](C#N)[C@H](C2)N1C next?
Return: 50.4

----------
Tested on: H292 cells
Assay: MTT cell viability assay
Type: cell-based, human
Settings: Homo sapiens, NCI-H292, H292, 24 h treatment
This section presents compounds with their documented log10(IC50) values.
Form field - Quantity: IC50; Unit: µM; Scale: log10

{"SMILES ENTRY": "COC1=C(C)C(=O)C2=C(C1=O)[C@@H]1CN(CCO)[C@@H](C#N)[C@H](C2)N1C", "EXPERIMENTAL SYSTEM": "H292 cells", "QUANTITY MEASURED": "log10(IC50)", "RECORDED MEASUREMENT": 1.64}
{"SMILES ENTRY": "COC1=C(C)C(=O)C2=C(C1=O)[C@@H]1CN(Cc3cccnc3)[C@@H](C#N)[C@H](C2)N1C", "EXPERIMENTAL SYSTEM": "H292 cells", "QUANTITY MEASURED": "log10(IC50)", "RECORDED MEASUREMENT": 1.73}
{"SMILES ENTRY": "COC1=C(C)C(=O)C2=C(C1=O)[C@@H]1CN(CCN3C(=O)c4ccccc4C3=O)[C@@H](C#N)[C@H](C2)N1C", "EXPERIMENTAL SYSTEM": "H292 cells", "QUANTITY MEASURED": "log10(IC50)", "RECORDED MEASUREMENT": 1.82}
{"SMILES ENTRY": "COC1=C(C)C(=O)C2=C(C1=O)[C@@H]1CN(Cc3ccc4ccccc4c3)[C@@H](C#N)[C@H](C2)N1C", "EXPERIMENTAL SYSTEM": "H292 cells", "QUANTITY MEASURED": "log10(IC50)", "RECORDED MEASUREMENT": 0.16}
{"SMILES ENTRY": "C#CCN1C[C@H]2C3=C(C[C@@H]([C@@H]1C#N)N2C)C(=O)C(C)=C(OC)C3=O", "EXPERIMENTAL SYSTEM": "H292 cells", "QUANTITY MEASURED": "log10(IC50)", "RECORDED MEASUREMENT": 1.76}

Enquiry: Which log10(IC50) value belongs to COC1=C(C)C(=O)C2=C(C1=O)[C@@H]1CN(Cc3ccccn3)[C@@H](C#N)[C@H](C2)N1C ?
Return: 1.47
